System: NCI-H460 lung
Labels: y (active), n (inactive)

1) COc1ccc(OC)c(-c2cc(-c3ccccc3)nn2-c2ccc(S(N)(=O)=O)cc2)c1 | n
2) C[C@H]1CCC/C=C/[C@@H]2C[C@H](O)C[C@H]2[C@H](O)[C@@H](S(=O)CCN)CC(=O)O1 (stereo not given in full) | y
3) CS(=O)c1ccc(-c2nc(-c3ccc(F)cc3)c(-c3ccncc3)[nH]2)cc1 (stereo not given) | n
4) Cc1ccc(C2SCc3nc4ccc(C(=O)c5ccccc5)cc4n32)cc1 (stereo not given) | n
5) CC[C@H](Nc1nc(N)nc(N)c1Cl)c1nc2cccc(NCc3ccc(C(=O)NO)cc3)c2c(=O)n1-c1ccccc1 | n
6) COc1cccc2c1cc([N+](=O)[O-])c1c(C(=O)O)cc3c(c12)OCO3 | n
7) O=C(O)c1ccc(-c2ccc(C(=O)O)cc2I)c(I)c1 | n
8) COc1cnc2c(c1)C(=O)c1c-2n(CCCN2CCNCC2)c(=O)c2cc(Cl)ccc12 | y
9) CN1CCN(Cc2ccc(NC(=O)c3[nH]ncc3Nc3ncnc4sccc34)cc2)CC1 | y
10) Oc1ccc(/C=N/Nc2nc3ccccc3s2)c(O)c1 | n
